Target: human 17α-hydroxylase/C17,20-lyase (Homo sapiens, UniProt P05093)
Construct: incubating human testicular microsomes; from tissue; host or cells: human testis, microsomes
Assay: Inhibition of human testicular 17α-hydroxylase/C17,20-lyase (enzyme complex as a whole)
Assay type: biochemical
Details: NI = no inhibition
Method: The conversion of radiolabeled pregnenolone to 17α-hydroxypregnenolone and DHEA by 17α-hydroxylase/C17,20 -lyase was measured by incubating human testicular microsomes with different concentration of test compounds. Reverse phase HPLC was used to separate and accurately quantify the amount of substrate and metabolites. The 17α-hydroxylase and C17,20 -lyase activities were calculated separately. […]
Measured property: inhibition of 17α-hydroxylase/C17,20-lyase (in words)

INSERT INTO measurements (molecule, result) VALUES
  ('CC(=NO)[C@H]1CC[C@H]2[C@@H]3CCC4=CC(=NO)CC[C@]4(C)[C@H]3CC[C@]12C [Compound I-42]', 'decreased activity'),
  ('CC(=NO)[C@H]1CC[C@H]2[C@@H]3CCC4=CC(=NO)CC[C@]4(C)[C@H]3CC[C@]12C [Compound I-43]', 'decreased activity');

----------
biological target: Human Testicular 17α-Hydroxylase (Homo sapiens, UniProt P05093); construct: incubating human testicular microsomes; from tissue; host or cells: human testis, microsomes; assay: Inhibition of human testicular 17α-hydroxylase (pregnenolone substrate, testicular microsomes); format: biochemical; settings: Table 1; NI = no inhibition; read-out: IC50 17α-OHase
Label scheme for IC50: bottom (below 0.09 µM), middle (0.09 µM to below 0.8 µM), top (0.8 µM or more)

INSERT INTO results (compound, category_label) VALUES
  ('C[C@]12CC[C@H](O)CC1=CC[C@@H]1[C@@H]2CC[C@]2(C)C(c3c[nH]cn3)=CC[C@@H]12 [Compound I-49]', 'bottom'),
  ('C[C@]12CC[C@H]3[C@@H](CC=C4C[C@@H](O)CC[C@@]43C)[C@@H]1CC[C@@H]2c1c[nH]cn1 [Compound I-47, 17β-(4''-imidazolyl)-androst-5-en-3β-ol]', 'bottom'),
  ('CCOC(=O)C1=CC[C@H]2[C@@H]3CC=C4C[C@@H](O)CC[C@]4(C)[C@H]3CC[C@]12C [Compound I-53]', 'top');

Exam item: Kindly state the category for this compound: C[C@]12CC[C@H](O)CC1=CC[C@@H]1[C@@H]2CC[C@@]2(C)[C@H]1C[C@H]1O[C@]12c1c[nH]cn1 [Compound I-51]
Marked response: middle

Exam item: State the band of C[C@]12CCC(=O)C=C1CC[C@@H]1[C@@H]2CC[C@]2(C)C(c3c[nH]cn3)=CC[C@@H]12 [Compound L-6]
Marked response: bottom

Exam item: Form: Item = CC(=O)O[C@H]1CC[C@@]2(C)C(=CC[C@@H]3[C@@H]2CC[C@]2(C)C(c4c[nH]cn4)=CC[C@@H]32)C1 [Compound L-12] ; Class = ?
Marked response: bottom

Exam item: Would you mind sorting CN(C)N=C1CC[C@H]2[C@@H]3CC=C4C[C@@H](O)CC[C@]4(C)[C@H]3CC[C@]12C [Compound I-56] into the appropriate category?
Marked response: top

Exam item: Form: Item = CC(=NO)[C@H]1CC[C@H]2[C@@H]3CCC4=CC(=NO)CC[C@]4(C)[C@H]3CC[C@]12C [Compound I-42] ; Class = ?
Marked response: middle

----------
target: Human Testicular C17,20-lyase (Homo sapiens, UniProt P05093); construct: incubating human testicular microsomes; from tissue; host or cells: human testis, microsomes; assay: Inhibition of human testicular C17,20-lyase (pregnenolone substrate, testicular microsomes); assay type: biochemical; settings: 100 nM; second figure of pair; read-out: % Inhibition C17,20-lyase, [I] = 100 nM
Sequence (P05093 whole entry): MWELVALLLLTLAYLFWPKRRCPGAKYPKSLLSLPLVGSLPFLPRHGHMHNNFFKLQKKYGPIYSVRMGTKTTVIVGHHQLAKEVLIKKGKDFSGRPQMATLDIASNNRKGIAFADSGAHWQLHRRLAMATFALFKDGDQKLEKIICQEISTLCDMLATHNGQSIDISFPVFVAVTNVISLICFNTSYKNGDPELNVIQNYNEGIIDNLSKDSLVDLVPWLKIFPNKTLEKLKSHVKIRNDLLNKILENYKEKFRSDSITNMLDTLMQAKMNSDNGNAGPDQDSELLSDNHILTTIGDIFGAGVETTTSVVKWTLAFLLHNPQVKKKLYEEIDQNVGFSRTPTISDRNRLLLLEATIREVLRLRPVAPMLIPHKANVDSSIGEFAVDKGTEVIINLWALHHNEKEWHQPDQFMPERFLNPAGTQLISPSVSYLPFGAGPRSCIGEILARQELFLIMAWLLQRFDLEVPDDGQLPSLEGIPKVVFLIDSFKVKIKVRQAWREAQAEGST
Listing of entries alongside the reported inhibition at 0.1 µM.
Please respond with the number in % and leave the unit unwritten.

INSERT INTO measurements (compound, result_number) VALUES
  ('Cc1nc([C@H]2CC[C@H]3[C@@H]4CC=C5C[C@@H](O)CC[C@]5(C)[C@H]4CC[C@]23C)co1 [Compound L-5]', 71.2),
  ('CC(=O)O[C@H]1CC[C@@]2(C)C(=CC[C@@H]3[C@@H]2CC[C@]2(C)C(c4c[nH]cn4)=CC[C@@H]32)C1 [Compound L-12]', 82.1);

Field: next compound
Kindly note: Human Testicular C17,20-lyase (Homo sapiens, UniProt P05093), C[C@]12CC[C@H]3[C@@H](CCC4=CC(=O)CC[C@@]43C)[C@@H]1CC[C@@H]2c1ncc[nH]1 [Compound L-3] , inhibition at 0.1 µM value reported: 62.9

----------
biological target: Human Prostatic 5α-Reductase (Homo sapiens); assay: Inhibition of human prostatic 5α-reductase (prostatic microsomes, [3H]testosterone); conditions: read-out: % Inhibition of 5α-reductase, [I] 10 nM
Measured property: inhibition at 0.01 µM (%)
Give just the numeric value; % need not be written.

# annotated cases, reported inhibition at 0.01 µM shown
INSERT INTO results (molecule, test_target, result_number) VALUES
  ('C[C@H](C=NN(C)C)[C@H]1CC[C@H]2[C@@H]3CCC4=CC(=O)CC[C@]4(C)[C@H]3CC[C@]12C', 'Human Prostatic 5α-Reductase (Homo sapiens)', 16.4),
  ('CC(=NO)C1=CC[C@H]2[C@@H]3CC=C4C[C@@H](O)CC[C@]4(C)[C@H]3CC[C@]12C [Compound I-5, 16-dehydropregnenolone-20-oxime]', 'Human Prostatic 5α-Reductase (Homo sapiens)', 0),
  ('C[C@H](C=NO)[C@H]1CC[C@H]2[C@@H]3CCC4=CC(=O)CC[C@]4(C)[C@H]3CC[C@]12C', 'Human Prostatic 5α-Reductase (Homo sapiens)', 14.7),
  ('C[C@H](O)C1=CC[C@H]2[C@@H]3CC=C4C[C@@H](O)CC[C@]4(C)[C@H]3CC[C@]12C', 'Human Prostatic 5α-Reductase (Homo sapiens)', 33.2),
  ('CC(C)(C)NC(=O)[C@H]1CC[C@H]2[C@@H]3CC[C@H]4NC(=O)C=C[C@]4(C)[C@H]3CC[C@]12C [Finasteride, reference compound]', 'Human Prostatic 5α-Reductase (Homo sapiens)', 41.2),
  ('CC(C#N)=C1CC[C@H]2[C@@H]3CCC4=CC(=O)CC[C@]4(C)[C@H]3CC[C@]12C', 'Human Prostatic 5α-Reductase (Homo sapiens)', 5.21);

Measured inhibition at 0.01 µM, C[C@]12CC[C@H]3[C@@H](CC=C4C[C@@H](O)CC[C@@]43C)[C@@H]1CC[C@@H]2[C@@]1(C)CO1 : 11.8

The molecule listed as CCN(CC)C(=O)[C@H]1CC[C@H]2[C@@H]3CC[C@H]4N(C)C(=O)CC[C@]4(C)[C@H]3CC[C@]12C [Compound 4MA, reference compound] shows inhibition at 0.01 µM equal to 71.9

What the record says about C[C@H](C#N)[C@H]1CC[C@H]2[C@@H]3CCC4=CC(=O)CC[C@]4(C)[C@H]3CC[C@]12C : inhibition at 0.01 µM is 21

C[C@@H](O)[C@H]1CC[C@H]2[C@@H]3CCC4=CC(=O)CC[C@]4(C)[C@H]3CC[C@]12C has a reported inhibition at 0.01 µM of 16.1

The recorded inhibition at 0.01 µM for CC(=O)[C@@]12O[C@@H]1C[C@H]1[C@@H]3CCC4=CC(=O)CC[C@]4(C)[C@H]3CC[C@@]12C is 15.1

Recorded result, C[C@H](C=O)[C@H]1CC[C@H]2[C@@H]3CCC4=CC(=O)CC[C@]4(C)[C@H]3CC[C@]12C , inhibition at 0.01 µM: 20.5

The molecule listed as C[C@]12CC[C@H]3[C@@H](CC=C4C[C@@H](O)CC[C@@]43C)[C@@H]1CC[C@@H]2[C@]1(C)CO1 has a reported inhibition at 0.01 µM of 13.6

----------
biological target: human 17α-hydroxylase/C17,20-lyase (Homo sapiens, UniProt P05093); construct: incubating human testicular microsomes; from tissue; host or cells: human testis, microsomes; assay: Inhibition of human testicular 17α-hydroxylase/C17,20-lyase (enzyme complex as a whole); assay type: biochemical; details: NI = no inhibition
Measured property: inhibition of 17α-hydroxylase/C17,20-lyase (in words)

INSERT INTO measurements (smiles_repr, result) VALUES
  ('C[C@]12CC[C@H]3[C@@H](CC=C4C[C@@H](O)CC[C@@]43C)[C@@H]1CC[C@@H]2[C@@]1(C)CO1', 'significant inhibition'),
  ('C[C@H](C=O)[C@H]1CC[C@H]2[C@@H]3CCC4=CC(=O)CC[C@]4(C)[C@H]3CC[C@]12C', 'significant inhibition');

----------
# pIC50 annotations
Molecular target: Human Prostatic 5α-Reductase (Homo sapiens, UniProt P31213)
Sequence (P31213 1-254): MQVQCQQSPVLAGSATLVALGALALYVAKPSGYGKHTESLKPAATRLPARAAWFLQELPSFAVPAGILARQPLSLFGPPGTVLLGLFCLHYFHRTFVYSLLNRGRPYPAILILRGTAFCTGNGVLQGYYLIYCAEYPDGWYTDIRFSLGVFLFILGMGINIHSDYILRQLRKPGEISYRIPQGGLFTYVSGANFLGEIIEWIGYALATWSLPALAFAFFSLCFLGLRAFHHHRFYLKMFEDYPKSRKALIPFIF
Experiment: Inhibition of human prostatic 5α-reductase (prostatic microsomes, [3H]testosterone)
Details: IC50 5α-reductase, Table 2
Reminder that pIC50 means the negative base-10 logarithm of the concentration expressed in mol/L.

Answered examples (3):
INSERT INTO measurements (compound, test_target, result_number) VALUES
  ('C[C@H](C=NO)[C@H]1CC[C@H]2[C@@H]3CCC4=CC(=O)CC[C@]4(C)[C@H]3CC[C@]12C', 'Human Prostatic 5α-Reductase (Homo sapiens, UniProt P31213)', 6.97),
  ('CC(C)(C)NC(=O)[C@H]1CC[C@H]2[C@@H]3CC[C@H]4NC(=O)C=C[C@]4(C)[C@H]3CC[C@]12C [Finasteride, reference compound]', 'Human Prostatic 5α-Reductase (Homo sapiens, UniProt P31213)', 7.85),
  ('CN(C=O)[C@H]1CC[C@H]2[C@@H]3CCC4=CC(=O)CC[C@]4(C)[C@H]3CC[C@]12C', 'Human Prostatic 5α-Reductase (Homo sapiens, UniProt P31213)', 6.82);

Please turn your attention to the following entry.
The value of pIC50 recorded for CC(=O)C1=CC[C@H]2[C@@H]3CCC4=CC(=O)CC[C@]4(C)[C@H]3CC[C@]12C [Compound L-13, 16-dehydroprogesterone] when tested on Human Prostatic 5α-Reductase (Homo sapiens, UniProt P31213) reads 7.66
